Tested on: MS2 coat protein
EXPERIMENT_NOTES: apparent KD of MS2 coat protein, switch OFF state (with FMN for OFF switches, without FMN for ON switches); designed switch direction (-1 OFF switch, 1 ON switch): 1; higher = weaker reporter binding
PROTOCOL_CONDITIONS: FMN input: 0 or 200 uM; Eterna round: R93 (includes R88 designs)
MEASUREMENT_LABEL: apparent KD of MS2 coat protein (µM)
Report only the number, with the unit µM understood.

CGGAAGGAGAGGGAGGAUAUCCAAAGGAAAACAUGAGGAUCACCCAUGUAGAAGGUAGGAAAUUGGGAGAAGGCUCAAGAGAGAG [salish99-ss2-131]
0.0244

The sequence identified as AUAAAACAUGAGGAUCACCCAUGUCAGAAAUGGCAAGGAUAUAGAAAAUAAAAAUAAAAACUAGAAGGUGCAAAAU [Meechl SS1 R2 m1] registered its apparent KD of MS2 coat protein at 0.198

The sequence identified as AUACAAACGUAUGAGGAUAUCCUUAAUAAAACAUGAGGAUCACCCAUGUGAAUAAAAUAACAAUUGGAGAAGGCAUACGUACAAU [Mat - Same state - Malcolm Mod - D137] registered its apparent KD of MS2 coat protein at 0.0189

The sequence identified as AAAAGACAUGAGGAUCACCCAUGUCGAAAGACAUGAGGAUAUGUACAGACUUCGGUCUGUACAGAAGGCAUAAAAA [SS1 - 1061] registered its apparent KD of MS2 coat protein at 0.0895

The sequence identified as AAAAGACAUGAGGAUCACCCAUGUAAAGACAUAGGAGGAUAUGUCUGGAAAAAAGACUGGACAGAAGGCCUUUGUC [SS1 - 62] registered its apparent KD of MS2 coat protein at 0.0204

The sequence identified as GAAAAACAUGAGGAUCACCCAUGUAGAAAUAUGGGAGGAUAUACAAAGACGAAAGUCAAAGUAGAAGGCCUGAGAA [Mat - Same State 1 - Eli mod - 83] registered its apparent KD of MS2 coat protein at 0.103

----------
Test system: MS2 coat protein
EXPERIMENT_NOTES: apparent KD of MS2 coat protein; designed switch direction (-1 OFF switch, 1 ON switch): -1; higher = weaker reporter binding
PROTOCOL_CONDITIONS: input ligand: FMN 200 uM
Tag: criterion met if measured apparent KD of MS2 coat protein is not below 0.08 µM, criterion not met if it is.

CCGACUCAAGGAUAUUGUACUGCUGACAUGAGGAUCACCCAUGUGUCCUGACGCGGACGACGAGAAGGUGACGACA [Eternabot (Original) Solution 44] (Eterna round: R97, puzzle: Exclusion 5)
criterion met

(Q) Answer whether apparent KD of MS2 coat protein of UCAAUGCGAGGAUAUACGCACAAUUACAUGAGGAUCACCCAUGUCAUGAACUUUGGUAAGGUAGAAGGCGCUCCGU [Eternabot (L1) Solution 13] (Eterna round: R97, puzzle: Exclusion 5) is greater than or equal to 0.08 µM.
(A) criterion not met

(Q) Answer whether apparent KD of MS2 coat protein of ACAUGUGUUGUAGGAUAUAGGAUACAUGAGGAUCACCCAUGUGGAUUCAUGUCUAAGGAAGCGUCCUAGAAGGACGACAACAUG [Ex NG2 #25] (Eterna round: R96, puzzle: Exclusion NG 2) is greater than or equal to 0.08 µM.
(A) criterion met

(Q) Answer whether apparent KD of MS2 coat protein of AGCUAGAUAGGAUAUGCCCGAGAUAACAUGAGGAUCACCCAUGUGACCGAAUCUAAUCUAGCAGAAGGGUUUAGGA [Mod of ViennaUCT 16 - Jieux - Exclusion 5] (Eterna round: R97, puzzle: Exclusion 5) is greater than or equal to 0.08 µM.
(A) criterion not met
